Exercise: state measured EC50 for each of the compounds provided.
- method: Antiviral activity against Influenza A virus (A/California/07/2009(H1N1)) infected in MDCK cells
- Format: functional, cell-based

Completed entries (count: 2):
COC(=O)[C@]1(C)CCC[C@]2(C)[C@H]3C[C@@H]4[C@H]5[C@@H]6CCC(=O)[C@H]5[C@@]3(CC[C@H]21)CC4(C(C)C)O6: > 100 µM
CC(C)C1=C[C@@]23CC[C@H]4[C@](C)(CO)CCC[C@]4(C)[C@H]2C[C@@H]1[C@@H]1[C@H]3[C@@H](O)CC[C@@H]1O: > 11 µM

Now examine the next entry.
Q: What value of EC50 has been reported for the following compound? COC(=O)[C@]1(C)CCC[C@]2(C)[C@H]3C[C@H]4C(C(C)C)=C[C@]3(CC[C@H]21)[C@@H]1C(=O)CC[C@H](OC(C)=O)[C@@H]14
Result: > 100 µM

---

- method: Selectivity index, ratio of CC50 for Influenza A virus (A/Viet Nam/1203/2004(H5N1)) infected MDCK cells to EC50 for antiviral activity against Influenza A virus (A/Viet Nam/1203/2004(H5N1)) infected in MDCK cells
- Assay type: toxicity, cell-based
- condition-info: dog; read-out: Ratio CC50/EC50
readout-type: selectivity ratio
Give bare numbers.

The examples below pair each entry with its known result.
COC(=O)[C@]1(C)CCC[C@]2(C)[C@H]3C[C@H]4C(C(C)C)=C[C@]3(CC[C@H]21)[C@@H]1/C(=N/O)CCC2(OCCO2)[C@@H]14: 1
COC(=O)[C@]1(C)CCC[C@]2(C)[C@H]3C[C@H]4C(C(C)C)=C[C@]3(CC[C@H]21)[C@@H]1C(=O)OC(=O)[C@@H]14: 1.5
COC(=O)[C@]1(C)CCC[C@]2(C)[C@H]3C[C@H]4C(C(C)C)=C[C@]3(CC[C@H]21)[C@H]1[C@@H]4[C@@H](OC(=O)CCC(=O)O)CC[C@@H]1OC(=O)CCC(=O)O: 1
COC(=O)[C@]1(C)CCC[C@]2(C)[C@H]3C[C@H]4C(C(C)C)=C[C@]3(CC[C@H]21)[C@@H]1C(=O)CC[C@H](OC(=O)c2cccnc2)[C@@H]14: 1

Please supply selectivity ratio for each of the following items, keeping them in order.
1. COC(=O)[C@]1(C)CCC[C@]2(C)[C@H]3C[C@H]4C(C(C)C)=C[C@]3(CC[C@H]21)[C@@H]1C(=O)[C@H]2O[C@H]2C(=O)[C@@H]14
2. COC(=O)[C@]12CCC(=O)[C@H]1[C@@]13C=C(C(C)C)[C@@H]2C[C@@H]1[C@@]1(C)CCC[C@@](C)(C(=O)OC)[C@@H]1CC3

Result:
1
1

---

- method: Antiviral activity against Influenza A virus (A/Brisbane/10/2007(H3N2)) infected in MDCK cells
- Format: functional, cell-based
readout-type: EC50

COC(=O)[C@]1(C)CCC[C@]2(C)[C@H]3C[C@@H]4[C@H]5[C@@H]6CCC(=O)[C@H]5[C@@]3(CC[C@H]21)CC4(C(C)C)O6: > 100 µM
COC(=O)[C@]1(C)CCC[C@]2(C)[C@H]3C[C@H]4C(C(C)C)=C[C@]3(CC[C@H]21)[C@H]1[C@@H]4[C@@H](OC(=O)/C=C/c2ccccc2)CC[C@@H]1OC(=O)C=Cc1ccccc1: > 4 µM

Q: Recorded EC50 of COC(=O)[C@]1(C)CCC[C@]2(C)[C@H]3C[C@H]4C(C(C)C)=C[C@]3(CC[C@H]21)[C@@H]1C(=O)[C@H]2O[C@H]2C(=O)[C@@H]14 , please.
Result: > 23 µM

---

For each entry below, report its EC50 value.
- method: Antiviral activity against Influenza A virus (A/Brisbane/10/2007(H3N2)) infected in MDCK cells
- Type: functional, cell-based

Known results for compounds:
COC(=O)[C@]1(C)CCC[C@]2(C)[C@H]3C[C@H]4C(C(C)C)=C[C@]3(CC[C@H]21)[C@@H]1C(=O)CCC2(OCCO2)[C@@H]14: > 26 µM
COC(=O)[C@]1(C)CCC[C@]2(C)[C@H]3C[C@H]4C(C(C)C)=C[C@]3(CC[C@H]21)[C@@H]1C(=O)CC[C@H](OC(=O)CCC(=O)O)[C@@H]14: > 100 µM
COC(=O)[C@]1(C)CCC[C@]2(C)[C@H]3CC4C(C(C)C)=C[C@]3(CC[C@H]21)[C@@H]1NC(=O)CC[C@H](O)[C@H]41: > 28 µM
COC(=O)[C@]1(C)CCC[C@]2(C)[C@H]3C[C@H]4C(C(C)C)=C[C@]3(CC[C@H]21)[C@@H]1C(=O)CC[C@H](OC(=O)/C=C/c2ccccc2)[C@@H]14: > 17 µM
COC(=O)[C@]1(C)CCC[C@]2(C)[C@H]3C[C@H]4C(C(C)C)=C[C@]3(CC[C@H]21)[C@@H]1C(=O)CC[C@H](OC(C)=O)[C@@H]14: > 100 µM

# batch: return EC50 for each of the 4 compounds below
1. COC(=O)[C@]12CCC(=O)[C@H]1[C@@]13C=C(C(C)C)[C@@H]2C[C@@H]1[C@@]1(C)CCC[C@@](C)(C(=O)OC)[C@@H]1CC3
2. COC(=O)[C@H]1[C@@H](C(=O)OC)[C@@]23C=C(C(C)C)[C@@H]1C[C@@H]2[C@@]1(C)CCC[C@@](C)(C(=O)OC)[C@@H]1CC3
3. COC(=O)[C@]1(C)CCC[C@]2(C)[C@H]3C[C@H]4C(C(C)C)=C[C@]3(CC[C@H]21)[C@@H]1C(=O)CC[C@H](O)[C@@H]14
4. COC(=O)[C@]1(C)CCC[C@]2(C)[C@H]3C[C@H]4C(C(C)C)=C[C@]3(CC[C@H]21)[C@H]1[C@@H]4[C@@H](O)CC[C@@H]1O

Result:
["32 µM", "> 7.6 µM", "> 100 µM", "> 64 µM"]

---

- method: Cytotoxicity against Influenza A virus (A/California/07/2009(H1N1)) infected MDCK cells
- Format: cell-based, Canis lupus familiaris
- condition-info: dog
readout-type: CC50

COC(=O)[C@]1(C)CCC[C@]2(C)[C@H]3C[C@@H]4[C@H]5[C@@H]6CCC(=O)[C@H]5[C@@]3(CC[C@H]21)CC4(C(C)C)O6: > 100 µM
COC(=O)[C@]1(C)CCC[C@]2(C)[C@H]3C[C@H]4C(C(C)C)=C[C@]3(CC[C@H]21)[C@@H]1C(=O)CC[C@H](O)[C@@H]14: > 100 µM

Q: Which CC50 value belongs to COC(=O)[C@]1(C)CCC[C@]2(C)[C@H]3C[C@H]4C(C(C)C)=C[C@]3(CC[C@H]21)[C@@H]1C(=O)CCC(=O)[C@@H]14 ?
Result: > 100 µM

---

Assign EC50 to each entry below.
- method: Antiviral activity against Influenza A virus (A/California/07/2009(H1N1)) infected in MDCK cells
- Type: functional, cell-based

Example cases with answers are listed next.
COC(=O)[C@]1(C)CCC[C@]2(C)[C@H]3C[C@H]4C(C(C)C)=C[C@]3(CC[C@H]21)[C@@H]1/C(=N/O)CCC2(OCCO2)[C@@H]14: > 2.9 µM
COC(=O)[C@]1(C)CCC[C@]2(C)[C@H]3C[C@H]4C(C(C)C)=C[C@]3(CC[C@H]21)[C@@H]1/C(=N/OC(C)=O)CC[C@H](OC(C)=O)[C@@H]14: > 4.8 µM

Consider the additional molecule presented here.
Q: So what's the measured EC50 for this one? COC(=O)[C@]1(C)CCC[C@]2(C)[C@H]3C[C@H]4C(C(C)C)=C[C@]3(CC[C@H]21)[C@@H]1C(=O)C=CC(=O)[C@@H]14
Result: > 5.5 µM

---

- method: Antiviral activity against Influenza A virus (A/Brisbane/10/2007(H3N2)) infected in MDCK cells
- Assay type: functional, cell-based
readout-type: EC50

COC(=O)[C@]12CC[C@H](O)[C@H]1[C@@]13C=C(C(C)C)[C@@H]2C[C@@H]1[C@@]1(C)CCC[C@@](C)(C(=O)OC)[C@@H]1CC3: > 24 µM
COC(=O)[C@]1(C)CCC[C@]2(C)[C@H]3C[C@@H]4[C@@H]5[C@H]6[C@H](OC(C)=O)CC[C@@H]5OC4(C(C)C)C[C@]63CC[C@H]21: > 5 µM
COC(=O)[C@]1(C)CCC[C@]2(C)[C@H]3C[C@H]4C(C(C)C)=C[C@]3(CC[C@H]21)[C@@H]1C(=O)CC[C@H](OCCC#N)[C@@H]14: 34 µM
CC(C)C1=C[C@]23CC[C@@H]4[C@](C)(CCC[C@@]4(C)C(=O)O)[C@H]2C[C@H]1[C@H]1C(=O)OC(=O)[C@H]13: 37 µM

Could you report EC50 for every entry in the following list?
1. CC(C)C1=C[C@@]23CC[C@@H]4[C@](C)(CCC[C@@]4(C)C(=O)O)[C@H]2C[C@@H]1[C@H]1C(=O)C=CC(=O)[C@H]13
2. COC(=O)[C@]1(C)CCC[C@]2(C)[C@H]3C[C@H]4C(C(C)C)=C[C@]3(CC[C@H]21)[C@@H]1C(=O)OC(=O)[C@@H]14

Result:
1. > 27 µM
2. 32 µM

Q: # get_value(readout='EC50', item= COC(=O)[C@]1(C)CCC[C@]2(C)[C@H]3C[C@H]4C(C(C)C)=C[C@]3(CC[C@H]21)[C@@H]1/C(=N/O)CCC(=O)[C@@H]14 )
Result: > 13 µM

Attribution: ChEMBL document CHEMBL3616462
